IC50 values, listed per item
Test system: SK-MEL-5 viability, CellTiter-Glo ATP luminescence, 24 h
Assay: SK-MEL-5 parental cell viability loss, dose response, orthogonal assay for MITF inhibitor project, CellTiter-Glo luminescence, dry powder samples (AID 540347)
Measurement label: IC50

{"Compound": "COc1cc2c(cc1OC)C(c1ccccc1)N(C(=O)CCl)CC2 (stereo unspecified)", "Measurement label": "IC50", "Assay value": "28.4 µM"}
{"Compound": "CC1=NNC(=O)/C1=C\\c1cn(-c2ccccc2)nc1-c1ccc(F)cc1", "Measurement label": "IC50", "Assay value": "25.4 µM"}
{"Compound": "Cc1cc(C(C)(C)C)cc(C)c1Cn1c2[n+](c3ccc(C(F)(F)F)cc31)CCCCC2", "Measurement label": "IC50", "Assay value": "27.1 µM"}
{"Compound": "CC(C)C(CCNC1CCN(C)CC1)c1ccc(Cl)cc1 (stereo unspecified)", "Measurement label": "IC50", "Assay value": "36.5 µM"}
{"Compound": "Cc1nc2ccccc2n1/N=C/c1ccc([N+](=O)[O-])s1", "Measurement label": "IC50", "Assay value": "9.51 µM"}
{"Compound": "N=c1n(CCN2CCCC2)c2ccccc2n1CC(O)c1ccc(Cl)c(Cl)c1 (stereo unspecified)", "Measurement label": "IC50", "Assay value": "30.5 µM"}

----------
Test system: SK-MEL-5 viability, CellTiter-Glo ATP luminescence, 24 h
Experiment: SK-MEL-5 parental cell viability loss, dose response, orthogonal assay for MITF inhibitor project, CellTiter-Glo luminescence, dry powder samples (AID 540347)

{"Compound": "C=CCNC1=C(Cl)C(=O)c2ccccc2C1=O", "IC50": "14.3 µM"}
{"Compound": "CCN1c2ccccc2NC2N=C(OC)C(c3ccccc3)C21 (stereo not given)", "IC50": "4.78 µM"}
{"Compound": "O=c1c(Cl)c2oc3ccccc3nc-2c2ccccc12", "IC50": "24.7 µM"}
{"Compound": "CCN1CCCC1CNC(=O)c1ccc2c(c1)NC(=O)/C(=C\\c1ccc(C)cc1)S2 (stereo not given)", "IC50": "29.1 µM"}
{"Compound": "O=C(COc1ccccc1)N/N=C/c1ccc([N+](=O)[O-])o1", "IC50": "35.5 µM"}
{"Compound": "COc1ccc(S(=O)(=O)N(C(C)=O)c2ccc(OC(C)=O)c3ccccc23)cc1[N+](=O)[O-]", "IC50": "6.58 µM"}
{"Compound": "CCN1CCN(C2=C(NS(=O)(=O)c3ccc(Br)cc3)C(=O)c3ccccc3C2=O)CC1", "IC50": "33.5 µM"}
{"Compound": "CC1(C)CC(NC(=O)c2ccc(Cl)c(S(=O)(=O)N(Cc3ccccc3)c3ccccc3)c2)CC(C)(C)N1", "IC50": "29.2 µM"}
{"Compound": "CN(C)CCCNC(=O)/C(=C\\c1ccc(-c2ccc(Br)cc2)o1)NC(=O)c1ccccc1", "IC50": "32 µM"}
{"Compound": "Cc1[nH]c2ccccc2c1C(=O)CCl", "IC50": "27.7 µM"}
